test-details: in vivo
test-context: CD-1 nu/nu, mouse, in vivo; ip, acute
measured-parameter: MTD

Exam item: Need MTD, item CC(C)=CCC/C(C)=C/CC/C(C)=C/CN1C(=O)c2cccc(O)c2N(C)c2c(O)cc(O)cc21 [Compound 2]
Marked response: ≥ 50 mg/kg

* * *

Test system: MDA-MB-231 (mammary gland adenocarcinoma)
test-details: In vitro cytotoxic activity (GI50), method (a), propidium iodide
Type: cell-based
test-context: Homo sapiens, MDA-MB-231; method (a), 96 hours; read-out: MDA-MB-231 (GI50 μM)
measured-parameter: GI50 (µM)
Express it in µM; write the number only.

Exam item: Need GI50, item COc1cc(OC)c2c(c1)N(C/C=C(\C)CC/C=C(\C)CCC=C(C)C)C(=O)c1cccc(O)c1N2
Marked response: 24.6

Exam item: Need GI50, item COc1cc(O)cc2c1Nc1c(O)cccc1C(=O)N2C/C=C(\C)CC/C=C(\C)CCC=C(C)C
Marked response: 20.5

Exam item: Need GI50, item COc1cccc2c1Nc1c(O)cc(O)cc1N(C/C=C(\C)CC/C=C(\C)CCC=C(C)C)C2=O
Marked response: 11.3

Exam item: Need GI50, item CC(C)=CCC/C(C)=C/CC/C(C)=C/CN1C(=O)c2cccc(O)c2Nc2c(O)cc(O)cc21
Marked response: 1.79

* * *

Test system: MDA-MB-231 (mammary gland adenocarcinoma)
test-details: In vitro cytotoxic activity (GI50), method (b), propidium iodide
Format: cell-based
test-context: Homo sapiens, 96 hrs
Provide the reported GI50 of each item.
Express it in µM; write the number only.

Exam item: Need GI50, item CC(C)=CCC/C(C)=C/CC/C(C)=C/CN1C(=O)c2cccc(O)c2N(C)c2c(O)cc(O)cc21 [Compound 2]
Marked response: 0.24

Exam item: Need GI50, item CCN1c2c(O)cccc2C(=O)N(C/C=C(\C)CC/C=C(\C)CCCC(C)(C)OC)c2cc(O)cc(O)c21 [Compound 85]
Marked response: 2.19

Exam item: Need GI50, item C/C(=C\CN1C(=O)c2cccc(O)c2N(C)c2c(O)cc(O)cc21)CCCC(C)CCCC(C)C (stereo not shown) [Compound 100]
Marked response: 0.37

Exam item: Need GI50, item CCOC(=O)CN1c2c(O)cccc2C(=O)N(C/C=C(\C)CC/C=C(\C)CCC=C(C)C)c2cc(O)cc(O)c21 [Compound 101]
Marked response: 3.67

Exam item: Need GI50, item CC(C)=CCC/C(C)=C/CC/C(C)=C/CN1C(=O)c2cccc(O)c2Nc2c(O)cc(O)cc21 [Compound 1]
Marked response: 3.18

* * *

test-details: Pharmacokinetic profile, plasma concentrations by LC/MS/MS
Format: in vivo, female Crl: CD1 mice
test-context: female, Crl: CD1, mouse, plasma, iv, 30 mg/kg, IV administration; read-out: half life (t1/2)
measured-parameter: half-life

Exam item: Need half-life, item CC(C)=CCC/C(C)=C/CC/C(C)=C/CN1C(=O)c2cccc(O)c2N(C)c2c(O)cc(O)cc21
Marked response: > 40 h

* * *

test-details: Pharmacokinetic profile, plasma concentrations by LC/MS/MS
Assay type: in vivo, female Crl: CD1 mice
test-context: female, Crl: CD1, mouse; ip, 30 mg/kg, mice plasma; read-out: AUC
measured-parameter: AUC (µM·h)
Express it in µM·h; write the number only.

Exam item: Need AUC, item CC(C)=CCC/C(C)=C/CC/C(C)=C/CN1C(=O)c2cccc(O)c2N(C)c2c(O)cc(O)cc21 [Compound 2]
Marked response: 58.8

* * *

Tested on: HT-29, SF-268, PC-3, MDA-MB-231
test-details: Average GI50 over the four cell lines, method (b)
Format: cell-based
test-context: values > 30 not considered
measured-parameter: GI50 (µM)
Express it in µM; write the number only.

Exam item: Need GI50, item CCN1c2c(O)cccc2C(=O)N(C/C=C(\C)CC/C=C(\C)CCC=C(C)C)c2cc(O)cc(O)c21 [Compound 14]
Marked response: 1.53

Exam item: Need GI50, item CC(C)=CCC/C(C)=C/CC/C(C)=C/CN1C(=O)c2cccc(O)c2Nc2c(O)cc(O)cc21 [Compound 1]
Marked response: 4.45

Exam item: Need GI50, item CC(C)=CCCC(C)(O)CCC/C(C)=C/CN1C(=O)c2cccc(O)c2Nc2c(O)cc(O)cc21 (centres unmarked) [Compound 89]
Marked response: 17.5

Exam item: Need GI50, item CCCCCCN1c2c(O)cccc2C(=O)N(C/C=C(\C)CC/C=C(\C)CCC=C(C)C)c2cc(O)cc(O)c21 [Compound 67]
Marked response: 1.55

Exam item: Need GI50, item CC(C)CCCC(C)CCCC(C)CCN1C(=O)c2cccc(O)c2N(C)c2c(O)cc(O)cc21 (centres unmarked) [Compound 78]
Marked response: 0.21
